Data provenance: patent US8969053B2

- Substrate: CC(=O)C=O
- experimental protocol: purified protein, by the assay type
- applied conditions: other: methylglyoxal 1.3-30 mM, 0.2 mM NADPH, pH 7.5, 37° C.
In this section we review reported kcat values for a set of proteins.
Numeric only. Scale: s⁻¹

As a guide, the following entries are already answered.
protein	kcat (s⁻¹)
Escherichia coli MG1655 YqhD, native (wild type), SEQ ID NO: 56 (Escherichia coli K-12) (protein) MNNFNLHTPTRILFGKGAIAGLREQIPHDARVLITYGGGSVKKTGVLDQVLDALKGMDVLEFGGIEPNPAYETLMNAVKLVREQKVTFLLAVGGGSVLDGTKFIAAAANYPENIDPWHILQTGGKEIKSAIPMGCVLTLPATGSESNAGAVISRKTTGDKQAFHSAHVQPVFAVLDPVYTYTLPPRQVANGVVDAFVHTVEQYVTKPVDAKIQDRFAEGILLTLIEDGPKALKEPENYDVRANVMWAATQALNGLIGAGVPQDWATHMLGHELTAMHGLDHAQTLAIVLPALWNEKRDTKRAKLLQYAERVWNITEGSDDERIDAAIAATRNFFEQLGVPTHLSDYGLDGSSIPALLKKLEEHGMTQLGENHDITLDVSRRIYEAAR	2.74
E. coli YqhD variant YqhD*(G149S A286T) (Escherichia coli K-12; A286T/G149S) (protein) MNNFNLHTPTRILFGKGAIAGLREQIPHDARVLITYGGGSVKKTGVLDQVLDALKGMDVLEFGGIEPNPAYETLMNAVKLVREQKVTFLLAVGGGSVLDGTKFIAAAANYPENIDPWHILQTGGKEIKSAIPMGCVLTLPATGSESNASAVISRKTTGDKQAFHSAHVQPVFAVLDPVYTYTLPPRQVANGVVDAFVHTVEQYVTKPVDAKIQDRFAEGILLTLIEDGPKALKEPENYDVRANVMWAATQALNGLIGAGVPQDWATHMLGHELTAMHGLDHAQTLTIVLPALWNEKRDTKRAKLLQYAERVWNITEGSDDERIDAAIAATRNFFEQLGVPTHLSDYGLDGSSIPALLKKLEEHGMTQLGENHDITLDVSRRIYEAAR	1.89

Specify reported kcat for the protein shown: E. coli YqhD variant YqhD*(G149S) (Escherichia coli K-12; G149S) (protein) MNNFNLHTPTRILFGKGAIAGLREQIPHDARVLITYGGGSVKKTGVLDQVLDALKGMDVLEFGGIEPNPAYETLMNAVKLVREQKVTFLLAVGGGSVLDGTKFIAAAANYPENIDPWHILQTGGKEIKSAIPMGCVLTLPATGSESNASAVISRKTTGDKQAFHSAHVQPVFAVLDPVYTYTLPPRQVANGVVDAFVHTVEQYVTKPVDAKIQDRFAEGILLTLIEDGPKALKEPENYDVRANVMWAATQALNGLIGAGVPQDWATHMLGHELTAMHGLDHAQTLAIVLPALWNEKRDTKRAKLLQYAERVWNITEGSDDERIDAAIAATRNFFEQLGVPTHLSDYGLDGSSIPALLKKLEEHGMTQLGENHDITLDVSRRIYEAAR 2.67
